Test: inhibitors of hydroxyurea-induced Chk1 phosphorylation, primary screen, imaging, HeLa, phospho-Chk1 antibody, percent positive cells (AID 1186)
Details: hydroxyurea-induced phospho-Chk1 immunofluorescence imaging, higher = more signal
Listing of recorded z-score by entry.
Assay Readout: z-score

* COCCOC(=O)N1C(=O)[C@@]2(c3cc(C#CCNC(N)=O)ccc31)[C@H](C(=O)NC[C@H](O)c1ccccc1)[C@H]1C(=O)O[C@H](c3ccccc3)[C@H](c3ccccc3)N1[C@@H]2c1ccc(O)cc1 | -0.134
* C=CCC(OC(C)=O)[C@@H]1[C@@H](N(Cc2ccc(-c3ccccc3)cc2)C(=O)c2ccc(-c3ccccc3)cc2)c2cc(OCCCO)ccc2N1C(=O)c1ccc(-c2ccccc2)cc1 (stereo not given in full) | -0.293
* COCCCNC(=O)[C@@]1(C)c2ccccc2C(=O)N(Cc2cc(F)cc(C(F)(F)F)c2)[C@H]1c1ccc(CO)cc1 | -0.1
* CC(C)N1CC=CC23O[C@@H]4/C=C\CCCOC(=O)C4[C@H]2C(=O)N(CCCO)[C@@H]3C1=O (stereo not given in full) | -0.235
* C=CC[C@]1(C(=O)N2CCCCC2)COC(c2ccc(OCCCO)cc2)=N1 | -0.8

The origin of these recorded values is PubChem BioAssay.
